I'd appreciate it if you could supply pKi values for the items below.
# assayed system: serotonin transporter (Rattus norvegicus)
# Construct: using synaptosomes prepared from rat midbrain and parietal/occipital cortex, respectively; from tissue; host or cells: rat midbrain synaptosomes
# Sequence (P31652 whole entry): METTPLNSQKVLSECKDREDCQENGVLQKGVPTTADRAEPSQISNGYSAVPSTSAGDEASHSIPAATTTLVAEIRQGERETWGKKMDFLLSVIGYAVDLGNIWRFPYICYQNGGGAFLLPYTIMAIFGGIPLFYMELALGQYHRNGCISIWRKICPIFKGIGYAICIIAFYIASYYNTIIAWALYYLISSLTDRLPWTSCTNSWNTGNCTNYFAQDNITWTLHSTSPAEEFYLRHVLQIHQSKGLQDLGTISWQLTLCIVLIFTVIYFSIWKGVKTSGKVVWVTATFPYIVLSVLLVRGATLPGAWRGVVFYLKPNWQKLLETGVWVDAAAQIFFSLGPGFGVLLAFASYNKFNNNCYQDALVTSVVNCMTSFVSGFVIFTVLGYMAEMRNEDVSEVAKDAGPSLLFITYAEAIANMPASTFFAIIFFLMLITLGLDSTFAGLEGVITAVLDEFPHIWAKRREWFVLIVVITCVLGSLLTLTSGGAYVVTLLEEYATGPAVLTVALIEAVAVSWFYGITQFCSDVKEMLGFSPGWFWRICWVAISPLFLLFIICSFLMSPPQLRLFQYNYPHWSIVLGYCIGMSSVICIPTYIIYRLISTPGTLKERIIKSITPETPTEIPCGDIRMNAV
# protocol notes: Synaptosomal uptake of [3H]5-HT
# Format: biochemical
Answers are plain numbers, as −log10 of the molar value.

CCCCC1C(c2ccccc2)C2CCN1CC2 (racemic) [(±)-12, 2-Butyl-3-phenylquinuclidine] ... 6.18

The record that follows has no pKi shown yet.
Query string: Record request: pKi value, item CCCCC1C(c2ccc(C)cc2)C2CCN1CC2 (single isomer, unassigned; (+)) [(+)-13, 2-Butyl-3-(4-methylphenyl)quinuclidine]
Result string: 6.29
